# System: Vero E6 infected with SARS-CoV-2
# Assay method text: SARS-CoV-2 infection rate relative to infected DMSO; higher = more infection, active = 60 or less
# Assay conditions: 24 h
Measured SARS-CoV-2 infection rate by item
The figure you give is taken to be in %; do not add the unit.

Compound	SARS-CoV-2 infection rate / %
Cc1c(C(=O)NCCCO)cnn1-c1nc(-c2cccc(C(F)(F)F)c2)cs1 (10 µM)	97.5

Assign SARS-CoV-2 infection rate to the following record: CCOC(=O)[C@H](CCc1ccccc1)N[C@@H](C)C(=O)N1Cc2ccccc2C[C@H]1C(=O)O [quinapril] (10 µM) 109

Provide SARS-CoV-2 infection rate value for the following compound: CCN1C(=O)CNc2ncc(-c3ccc(-c4nc[nH]n4)nc3C)nc21 (10 µM) 96.5

Please report SARS-CoV-2 infection rate for the following compound: O=C(O)COc1nn(Cc2ccccc2)c2ccccc12 [bendazac] (10 µM) 102

Name the recorded SARS-CoV-2 infection rate of the item COc1ccc(C2CC(c3ccccc3)=NN2c2ccc(S(N)(=O)=O)cc2)cc1 (configuration not stated) (10 µM) in your answer. 87

Determine its reported SARS-CoV-2 infection rate: CC(=O)c1ccc(NS(C)(=O)=O)c(Oc2ccc(F)cc2F)c1 (10 µM) 92.5

Fill in SARS-CoV-2 infection rate for record NC(=O)c1ccc[n+]([C@@H]2O[C@H](COP(=O)([O-])OP(=O)(O)OC[C@H]3O[C@@H](n4cnc5c(N)ncnc54)[C@H](O)[C@@H]3O)[C@@H](O)[C@H]2O)c1 [nadide] (10 µM) 94

Please look at this compound and report its SARS-CoV-2 infection rate: O=C(/C=C/C=C/c1ccc2c(c1)OCO2)N1CCCCC1 [piperine] (10 µM) 97.5

Please give measured SARS-CoV-2 infection rate of the following entry: Oc1ccc(OC2CCCCO2)cc1 (configuration not stated) [deoxyarbutin] (10 µM) 97

Determine from records and report SARS-CoV-2 infection rate for CCCNCC(O)COc1ccccc1C(=O)CCc1ccccc1 (configuration not stated) [propafenone] (0.833333 µM) 110

Could you please provide reported SARS-CoV-2 infection rate for CCCn1c(=O)c2[nH]c(C3CCCC3)nc2n(CCC)c1=O (10 µM) ? Thanks! 105

Report SARS-CoV-2 infection rate, nothing else, for this compound: COc1ccc(CN(C(=O)[C@@H](N)Cc2c(C)cc(C(N)=O)cc2C)[C@@H](C)c2ncc(-c3ccccc3)[nH]2)cc1C(=O)O [eluxadoline] (10 µM) 117

Report measured SARS-CoV-2 infection rate; entry is CCCCCCOC(=O)NC(=N)c1ccc(NCc2nc3cc(C(=O)N(CCC(=O)OCC)c4ccccn4)ccc3n2C)cc1 [dabigatran-etexilate] (10 µM) 98.5

Give recorded SARS-CoV-2 infection rate. C[C@H]1CNCCCN1S(=O)(=O)c1cccc2cncc(F)c12 [ripasudil] (10 µM) 112

Please supply the value of reported SARS-CoV-2 infection rate for the item CC(C)(C)c1ccc(/C=C/C(=O)Nc2ccc3c(c2)OCCO3)cc1 (10 µM) 110

Item NCCc1c[nH]c2ccc(O)cc12 [serotonin] (10 µM) : provide SARS-CoV-2 infection rate 108

Give recorded SARS-CoV-2 infection rate. CCS(=O)(=O)CCn1c([N+](=O)[O-])cnc1C [tinidazole] (10 µM) 108

* * *

# System: Vero E6 infected with SARS-CoV-2
# Assay method text: inhibition of SARS-CoV-2 cytopathic effect; higher = more antiviral protection, active = above 15
# Assay conditions: 10000 nM; 48 h
// reported inhibition of SARS-CoV-2 cytopathic effect for each item listed
Reply with just the number (in %).

A selection of reference data follows.
Molecule	Tgt	Assay result
NCCC(=O)N[C@@H](Cc1c[nH]cn1)C(=O)O	Vero E6 infected with SARS-CoV-2	-17.4
COc1ccc(-c2cc(=O)c3c(O)cc(O)cc3o2)cc1O	Vero E6 infected with SARS-CoV-2	2.95
CC(C)(CC(=O)N1CCCC1)NCC(=O)N1C[C@@H](F)C[C@H]1C#N	Vero E6 infected with SARS-CoV-2	-0.94
Cc1cccc(C)c1NC(=O)c1ccc(N)cc1 [ameltolide]	Vero E6 infected with SARS-CoV-2	-2.67
CCCCCCCCCCCC(=O)O	Vero E6 infected with SARS-CoV-2	-1.99
Nc1cccc(-c2cc3c(Oc4cccc(O)c4)ncnc3[nH]2)c1	Vero E6 infected with SARS-CoV-2	-11.4
CCC(=O)O[C@@H]1CC(=O)O[C@H](C)C/C=C/C=C/[C@H](OC(C)=O)[C@H](C)C[C@H](CC=O)[C@H](O[C@@H]2O[C@H](C)[C@@H](O[C@H]3C[C@@](C)(OC(C)=O)[C@@H](OC(=O)CC)[C@H](C)O3)[C@H](N(C)C)[C@H]2O)[C@H]1OC	Vero E6 infected with SARS-CoV-2	-2.09
COc1ccc(Nc2ccn(-c3ccccc3)n2)cc1	Vero E6 infected with SARS-CoV-2	4.1

Report inhibition of SARS-CoV-2 cytopathic effect, nothing else, for this molecule: `CNC(=O)c1ccccc1Sc1ccc2c(/C=C/c3ccccn3)n[nH]c2c1` 0.23

Give the value of inhibition of SARS-CoV-2 cytopathic effect reported for the following: `O=C(N[C@@H](Cc1c[nH]c2ccccc12)C(=O)O)c1ccc(Cl)cc1` 3.35

State its inhibition of SARS-CoV-2 cytopathic effect: `C[N+]1(C)CCC(OC(=O)C(c2ccccc2)c2ccccc2)CC1` 1.67

Write down inhibition of SARS-CoV-2 cytopathic effect measured for item `N=C(N)Nc1ccc(Cl)cc1` 0.95

Please give the documented inhibition of SARS-CoV-2 cytopathic effect of `O=C(O)CCNC(=O)c1ccccc1` -2.18

Please list inhibition of SARS-CoV-2 cytopathic effect recorded for the molecule CC1=C(C(=O)OC(C)C)C(c2cccc([N+](=O)[O-])c2)C(C(=O)OC2CN(C(c3ccccc3)c3ccccc3)C2)=C(N)N1 (centres undefined) -6.87

Answer with the recorded inhibition of SARS-CoV-2 cytopathic effect for the molecule listed here: `NCc1cc(O)no1` 0.49

State its inhibition of SARS-CoV-2 cytopathic effect for this molecule: `C[C@@H](N[C@H]1CCCC[C@@H]1NC(=O)c1ccc(Cl)cc1)c1cccc2ccccc12` -1.86

* * *

# Tested on: Vero E6 infected with SARS-CoV-2
# Assay method text: inhibition of SARS-CoV-2 cytopathic effect; higher = more antiviral protection, active = above 15
# Assay conditions: 8.33 nM; 48 h
Some compounds, each annotated with its measured inhibition of SARS-CoV-2 cytopathic effect.
// return numeric value only (unit: %, not printed)

In the examples that follow, each entry is paired with its recorded inhibition of SARS-CoV-2 cytopathic effect.
>>> print(df.to_string())
                                   compound  result_units  assay_result
0                 Cc1nc2c(O)cccc2c(=O)[nH]1             %          2.96
1          CCOC(=O)C(=O)Nc1cccc(OC)c1C(N)=O             %          7.85
2  NC1=NCC2c3ccccc3Cc3ccccc3N12 (centres undefined) [epinastine]             %         -1.14
3  Cn1cc(-c2cnn3c(N)c(Br)c([C@@H]4CCCNC4)nc23)cn1             %          0.92
4  CN(C)[C@@H]1C(O)=C(C(N)=O)C(=O)[C@@]2(O)C(O)=C3C(=O)c4c(O)ccc(Cl)c4[C@@H](O)[C@H]3C[C@@H]12             %          1.08

Would you kindly look at the next entry?
Identify inhibition of SARS-CoV-2 cytopathic effect associated with the compound `Cc1nc2cnc3ccc(C#Cc4cccnc4)cc3c2n1-c1ccc(C(C)(C)C#N)cc1` 8.23

* * *

# Test system: Vero E6 infected with SARS-CoV-2
# Assay method text: morphology score (similarity to uninfected cells); higher = more like uninfected cells
# Assay conditions: 24 h
Quantity measured: morphology score
Give your answer as a number; write no unit.

Solved entries:
Compound	morphology score
O=C1c2cccc(O)c2C(=O)c2c(O)cccc21 [dantron] (10 µM)	-0.0545
CN[C@@H](C)C(=O)N[C@H](C(=O)N1CCC[C@H]1C(=O)N[C@H]1c2ccccc2C[C@H]1OCC#CC#CCO[C@@H]1Cc2ccccc2[C@@H]1NC(=O)[C@@H]1CCCN1C(=O)[C@@H](NC(=O)[C@H](C)NC)C1CCCCC1)C1CCCCC1 (10 µM)	-0.161
OC1(c2ccc(Cl)c(C(F)(F)F)c2)CCN(CCCC(c2ccc(F)cc2)c2ccc(F)cc2)CC1 [penfluridol] (0.833333 µM)	0.173

# ---- query compound ----
Identify morphology score associated with the compound CCOC(=O)c1c(/C(C#N)=C\N)c2ccc(Cl)c(Cl)c2n1C (10 µM) -0.0335
